Catalogue of sequences with associated PBM binding z-score
# Test system: LXRb homodimer (NR concentration 270 nM)
# ASSAY OVERVIEW: PBM binding z-score (relative to random genomic background probes); higher = stronger binding; sequences stand for … in GC…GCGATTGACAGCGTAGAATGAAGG

[
  {
    "RECORD SEQUENCE": "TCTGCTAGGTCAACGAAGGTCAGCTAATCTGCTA",
    "PBM binding z-score": 0.162
  },
  {
    "RECORD SEQUENCE": "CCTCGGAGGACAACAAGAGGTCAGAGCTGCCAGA",
    "PBM binding z-score": -0.358
  },
  {
    "RECORD SEQUENCE": "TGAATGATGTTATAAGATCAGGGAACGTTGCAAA",
    "PBM binding z-score": 0.0619
  },
  {
    "RECORD SEQUENCE": "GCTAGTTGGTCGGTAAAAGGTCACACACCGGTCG",
    "PBM binding z-score": 0.63
  },
  {
    "RECORD SEQUENCE": "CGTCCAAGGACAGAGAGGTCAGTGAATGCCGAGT",
    "PBM binding z-score": -0.627
  },
  {
    "RECORD SEQUENCE": "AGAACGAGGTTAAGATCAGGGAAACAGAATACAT",
    "PBM binding z-score": 0.134
  },
  {
    "RECORD SEQUENCE": "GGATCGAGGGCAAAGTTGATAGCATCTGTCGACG",
    "PBM binding z-score": -0.138
  },
  {
    "RECORD SEQUENCE": "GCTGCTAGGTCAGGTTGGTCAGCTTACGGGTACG",
    "PBM binding z-score": -0.0807
  },
  {
    "RECORD SEQUENCE": "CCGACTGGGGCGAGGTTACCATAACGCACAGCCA",
    "PBM binding z-score": -0.662
  },
  {
    "RECORD SEQUENCE": "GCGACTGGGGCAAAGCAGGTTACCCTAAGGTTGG",
    "PBM binding z-score": -0.841
  },
  {
    "RECORD SEQUENCE": "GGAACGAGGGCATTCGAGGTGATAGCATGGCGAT",
    "PBM binding z-score": -0.578
  },
  {
    "RECORD SEQUENCE": "ATATGTAGGTTTCATCCGGGTCATTCAGGCTATG",
    "PBM binding z-score": 0.658
  },
  {
    "RECORD SEQUENCE": "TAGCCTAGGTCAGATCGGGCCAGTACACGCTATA",
    "PBM binding z-score": -0.385
  },
  {
    "RECORD SEQUENCE": "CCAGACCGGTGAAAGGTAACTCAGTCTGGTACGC",
    "PBM binding z-score": -0.601
  },
  {
    "RECORD SEQUENCE": "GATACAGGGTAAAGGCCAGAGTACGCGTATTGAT",
    "PBM binding z-score": -0.658
  },
  {
    "RECORD SEQUENCE": "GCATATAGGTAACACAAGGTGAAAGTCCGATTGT",
    "PBM binding z-score": -0.351
  },
  {
    "RECORD SEQUENCE": "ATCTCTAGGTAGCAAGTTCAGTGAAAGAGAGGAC",
    "PBM binding z-score": 0.153
  },
  {
    "RECORD SEQUENCE": "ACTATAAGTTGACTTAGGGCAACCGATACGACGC",
    "PBM binding z-score": 0.348
  },
  {
    "RECORD SEQUENCE": "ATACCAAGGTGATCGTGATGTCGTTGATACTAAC",
    "PBM binding z-score": -0.0295
  },
  {
    "RECORD SEQUENCE": "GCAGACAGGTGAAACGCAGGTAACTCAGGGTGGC",
    "PBM binding z-score": -1
  },
  {
    "RECORD SEQUENCE": "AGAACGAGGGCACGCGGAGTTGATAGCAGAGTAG",
    "PBM binding z-score": -1.01
  },
  {
    "RECORD SEQUENCE": "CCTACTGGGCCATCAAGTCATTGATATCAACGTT",
    "PBM binding z-score": -0.319
  },
  {
    "RECORD SEQUENCE": "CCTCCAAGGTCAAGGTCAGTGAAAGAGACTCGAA",
    "PBM binding z-score": 0.877
  },
  {
    "RECORD SEQUENCE": "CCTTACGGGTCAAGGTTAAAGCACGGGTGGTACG",
    "PBM binding z-score": 0.0143
  },
  {
    "RECORD SEQUENCE": "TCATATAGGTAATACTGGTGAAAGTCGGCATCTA",
    "PBM binding z-score": 0.101
  },
  {
    "RECORD SEQUENCE": "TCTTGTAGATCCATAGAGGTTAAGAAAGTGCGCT",
    "PBM binding z-score": 0.453
  },
  {
    "RECORD SEQUENCE": "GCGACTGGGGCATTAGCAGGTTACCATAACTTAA",
    "PBM binding z-score": -0.458
  },
  {
    "RECORD SEQUENCE": "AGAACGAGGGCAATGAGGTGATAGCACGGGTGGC",
    "PBM binding z-score": -0.118
  },
  {
    "RECORD SEQUENCE": "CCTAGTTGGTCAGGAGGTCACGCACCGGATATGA",
    "PBM binding z-score": 0.661
  },
  {
    "RECORD SEQUENCE": "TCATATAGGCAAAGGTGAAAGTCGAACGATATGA",
    "PBM binding z-score": -0.302
  },
  {
    "RECORD SEQUENCE": "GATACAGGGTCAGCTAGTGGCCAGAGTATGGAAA",
    "PBM binding z-score": -0.762
  },
  {
    "RECORD SEQUENCE": "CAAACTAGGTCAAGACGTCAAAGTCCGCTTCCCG",
    "PBM binding z-score": 0.329
  },
  {
    "RECORD SEQUENCE": "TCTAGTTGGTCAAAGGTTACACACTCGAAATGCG",
    "PBM binding z-score": 0.929
  },
  {
    "RECORD SEQUENCE": "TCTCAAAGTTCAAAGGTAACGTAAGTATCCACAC",
    "PBM binding z-score": 2.02
  },
  {
    "RECORD SEQUENCE": "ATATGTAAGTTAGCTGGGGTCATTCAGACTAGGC",
    "PBM binding z-score": 0.895
  },
  {
    "RECORD SEQUENCE": "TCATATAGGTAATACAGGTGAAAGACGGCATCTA",
    "PBM binding z-score": 0.0154
  },
  {
    "RECORD SEQUENCE": "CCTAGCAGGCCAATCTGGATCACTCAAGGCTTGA",
    "PBM binding z-score": -0.696
  },
  {
    "RECORD SEQUENCE": "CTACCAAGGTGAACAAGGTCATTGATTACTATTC",
    "PBM binding z-score": -0.00581
  },
  {
    "RECORD SEQUENCE": "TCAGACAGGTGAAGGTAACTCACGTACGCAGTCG",
    "PBM binding z-score": -0.343
  },
  {
    "RECORD SEQUENCE": "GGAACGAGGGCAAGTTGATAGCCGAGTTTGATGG",
    "PBM binding z-score": -0.62
  },
  {
    "RECORD SEQUENCE": "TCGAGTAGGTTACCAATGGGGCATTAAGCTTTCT",
    "PBM binding z-score": -1.11
  },
  {
    "RECORD SEQUENCE": "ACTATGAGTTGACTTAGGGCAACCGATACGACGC",
    "PBM binding z-score": 0.578
  },
  {
    "RECORD SEQUENCE": "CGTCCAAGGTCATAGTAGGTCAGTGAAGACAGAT",
    "PBM binding z-score": 1.31
  },
  {
    "RECORD SEQUENCE": "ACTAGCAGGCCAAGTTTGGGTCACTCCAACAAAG",
    "PBM binding z-score": -0.49
  },
  {
    "RECORD SEQUENCE": "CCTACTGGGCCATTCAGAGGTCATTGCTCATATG",
    "PBM binding z-score": 0.398
  },
  {
    "RECORD SEQUENCE": "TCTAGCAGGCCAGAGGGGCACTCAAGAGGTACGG",
    "PBM binding z-score": -0.644
  },
  {
    "RECORD SEQUENCE": "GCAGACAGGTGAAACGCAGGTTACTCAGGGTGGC",
    "PBM binding z-score": -0.875
  },
  {
    "RECORD SEQUENCE": "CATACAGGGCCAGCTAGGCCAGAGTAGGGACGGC",
    "PBM binding z-score": -0.413
  },
  {
    "RECORD SEQUENCE": "CCTCGGACGACAGAAGGTCAGAGCTGTCCGCTTT",
    "PBM binding z-score": -0.358
  },
  {
    "RECORD SEQUENCE": "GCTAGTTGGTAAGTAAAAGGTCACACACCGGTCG",
    "PBM binding z-score": 0.812
  },
  {
    "RECORD SEQUENCE": "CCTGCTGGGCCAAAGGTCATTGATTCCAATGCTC",
    "PBM binding z-score": 0.872
  }
]

The reported numbers originate from the supplement of paper PMC6555819.
